- Subject of test: T1, IFN-α4a (human, UniProt P05014 24-189)
- T1 construct: Recombinant, HEK293; also called IFN-αM1
- Protocol text: ProteOn SPR, cell supernatant;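 further: each binding measurement used just a single antigen concentration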
Kindly state pKd for each of the entries shown.
One number for each entry, as −log10 of the molar value.

pKd measured on IFWM3420 (antibody, IgG1, V domains shown, mAb; IgG1/kappa said of the parent and of selected mAbs; also called IFWB3155) VH: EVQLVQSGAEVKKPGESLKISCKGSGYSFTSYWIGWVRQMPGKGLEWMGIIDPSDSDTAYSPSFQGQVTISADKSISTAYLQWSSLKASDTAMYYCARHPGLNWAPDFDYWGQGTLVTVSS VL: DIQMTQSPSSLSASVGDRVTITCRASQSIAGFLNWYQQKPGKAPKLLIYYASSLQSGVPSRFSGSGSGTDFTLTISSLQPEDFATYYCQQSYSIPITFGQGTKVEIK = 9.32

Okay, next one:
pKd measured on IFWM3406 (antibody, IgG1, V domains shown, mAb; IgG1/kappa said of the parent and of selected mAbs; also called IFWB3141) VH: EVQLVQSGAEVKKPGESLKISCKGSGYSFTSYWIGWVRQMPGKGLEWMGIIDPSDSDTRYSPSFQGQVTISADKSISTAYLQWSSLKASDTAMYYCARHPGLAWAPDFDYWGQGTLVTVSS VL: DIQMTQSPSSLSASVGDRVTITCRASQSINNLNWYQQKPGKAPKLLIYWASSLQSGVPSRFSGSGSGTDFTLTISSLQPEDFATYYCQQGYDTPFTFGQGTKVEIK = 9.87
